# Lookup of reported pIC50 keyed by entry
System: M-HeLa
Assay: Cytotoxicity assay (Cytell Cell Imaging, Cell Viability Bio App)
Conditions: read-out: Cytotoxic effects (IC50) M-HeLa; cancer cell line M-HeLa; tested at 1–100 μM; mean ± SD, three repeats
pIC50: −log10 of the molar value.
Observable: pIC50

Compound: Cc1cnc(N)s1
Observable: pIC50
Numeric Readout: 4.04
//
Compound: O=c1[nH]cc(F)c(=O)[nH]1 [5-Fluorouracil, reference compound]
Observable: pIC50
Numeric Readout: 4.21
//
Compound: CCOC(=O)c1csc(N)n1
Observable: pIC50
Numeric Readout: 4.20
//
Compound: Cc1cnc(Nc2ccccc2)s1
Observable: pIC50
Numeric Readout: 4.04
//
Compound: COc1ccc(Nc2nccs2)cc1
Observable: pIC50
Numeric Readout: 4.03
